TARGET SYSTEM: human β3-AR (Homo sapiens, UniProt P13945)
Construct: Full length β3 AR clones (402 amino acids) containing the last 6 amino acids of hβ3; expressed in transfected cells; host or cells: CHO (Chinese hamster ovary) cells
Sequence (P13945 whole entry): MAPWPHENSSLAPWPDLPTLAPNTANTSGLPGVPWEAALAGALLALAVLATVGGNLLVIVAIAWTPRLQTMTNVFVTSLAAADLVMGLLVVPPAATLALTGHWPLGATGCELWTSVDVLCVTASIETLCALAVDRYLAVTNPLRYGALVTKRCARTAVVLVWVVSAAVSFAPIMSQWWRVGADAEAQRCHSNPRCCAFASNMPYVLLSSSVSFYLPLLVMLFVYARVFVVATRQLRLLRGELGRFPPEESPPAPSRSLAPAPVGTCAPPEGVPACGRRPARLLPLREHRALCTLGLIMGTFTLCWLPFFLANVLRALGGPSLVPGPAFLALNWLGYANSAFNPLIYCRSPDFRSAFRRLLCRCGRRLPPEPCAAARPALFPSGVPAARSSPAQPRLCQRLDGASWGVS
PROTOCOL SUMMARY: cAMP accumulation (SPA) in CHO cells transfected with human β3 adrenergic receptor
Format: cell-based
CONDITION DETAILS: CHO cells expressing human β3-AR, cAMP, 30 min at 37° C., 10^-9 M to 10^-5 M; read-out: EC50(β3)
pEC50: −log10 of the molar value.
Quick rule: pEC50 of at least 8 means true, below that means false.

- COMPOUND: "O=C1NC(=O)C(Nc2ccc(CCNC[C@@H](O)COc3cccc4[nH]c(=O)[nH]c34)cc2)S1 (stereo partly shown)"
  TARGET SYSTEM: "human β3-AR (Homo sapiens, UniProt P13945)"
  CLASS LABEL: "false"
- COMPOUND: "O=C1NC(=O)C(Nc2ccc(CCNC[C@H](O)COc3ccccc3)cc2)S1 (stereo partly shown)"
  TARGET SYSTEM: "human β3-AR (Homo sapiens, UniProt P13945)"
  CLASS LABEL: "true"
- COMPOUND: "O=C1NC(=O)C(Nc2ccc(CCNC[C@H](O)COc3ccc(O)cc3)cc2)S1 (stereo partly shown)"
  TARGET SYSTEM: "human β3-AR (Homo sapiens, UniProt P13945)"
  CLASS LABEL: "false"
- COMPOUND: "O=C1NC(=O)C(Nc2ccc(CCNC[C@H](O)c3cccnc3)cc2)S1 (stereo partly shown)"
  TARGET SYSTEM: "human β3-AR (Homo sapiens, UniProt P13945)"
  CLASS LABEL: "false"
- COMPOUND: "O=C1NC(=O)C(N(Cc2ccc(Br)cc2)c2ccc(CCNC[C@H](O)COc3ccccc3)cc2)S1 (stereo partly shown)"
  TARGET SYSTEM: "human β3-AR (Homo sapiens, UniProt P13945)"
  CLASS LABEL: "true"
- COMPOUND: "O=C1NC(=O)C(Nc2ccc(CCNC[C@H](O)COc3cccc(O)c3)cc2)S1 (stereo partly shown)"
  TARGET SYSTEM: "human β3-AR (Homo sapiens, UniProt P13945)"
  CLASS LABEL: "true"
- COMPOUND: "O=C1NC(=O)C(Nc2ccc(CCNC[C@H](O)COc3ccc(OCc4ccccc4)cc3)cc2)S1 (stereo partly shown)"
  TARGET SYSTEM: "human β3-AR (Homo sapiens, UniProt P13945)"
  CLASS LABEL: "true"
- COMPOUND: "O=C1NC(=O)C(Nc2ccc(CCNC[C@H](O)c3ccccc3)cc2)S1 (stereo partly shown)"
  TARGET SYSTEM: "human β3-AR (Homo sapiens, UniProt P13945)"
  CLASS LABEL: "false"

###

TARGET SYSTEM: human β3-AR (Homo sapiens)
Construct: Full length β3 AR clones (402 amino acids) containing the last 6 amino acids of hβ3; expressed in transfected cells; host or cells: CHO (Chinese hamster ovary) cells
PROTOCOL SUMMARY: cAMP accumulation (SPA) in CHO cells transfected with human β3 adrenergic receptor
Assay type: cell-based
CONDITION DETAILS: maximal response compared to the maximal response of isoproterenol at 10^-5 M; CHO cells expressing human β3-AR; read-out: IA(β3)

- MOLECULE: "O=C1NC(=O)C(Nc2ccc(CCNC[C@H](O)COc3ccc(OCc4ccccc4)cc3)cc2)S1 (stereo partly shown)"
  Emax (%): 85
- MOLECULE: "CS(=O)(=O)Nc1cc([C@H](O)CNCCc2ccc(NC3SC(=O)NC3=O)cc2)ccc1O (stereo partly shown)"
  Emax (%): 111
- MOLECULE: "O=C1NC(=O)C(Nc2ccc(CCNC[C@H](O)COc3cccc(O)c3)cc2)S1 (stereo partly shown)"
  Emax (%): 117
- MOLECULE: "CN(c1ccc(CCNC[C@H](O)COc2ccccc2)cc1)C1SC(=O)NC1=O (stereo partly shown)"
  Emax (%): 68
- MOLECULE: "O=C1NC(=O)C(Nc2ccc(CCNC[C@@H](O)COc3cccc4[nH]c(=O)[nH]c34)cc2)S1 (stereo partly shown)"
  Emax (%): 71
- MOLECULE: "O=C1NC(=O)C(Nc2ccc(CCNC[C@H](O)c3cccnc3)cc2)S1 (stereo partly shown)"
  Emax (%): 88
- MOLECULE: "O=C1NC(=O)C(Nc2ccc(CCNC[C@H](O)COc3cccc4[nH]c5ccccc5c34)cc2)S1 (stereo partly shown)"
  Emax (%): 104
- MOLECULE: "O=C1NC(=O)C(Nc2ccc(CCNC[C@H](O)COc3ccccc3)cc2)S1 (stereo partly shown)"
  Emax (%): 98
- MOLECULE: "O=C1NC(=O)C(Nc2ccc(CCNC[C@H](O)COc3ccc(F)cc3)cc2)S1 (stereo partly shown)"
  Emax (%): 66
- MOLECULE: "O=C1NC(=O)C(Nc2ccc(CCNC[C@H](O)c3ccccc3)cc2)S1 (stereo partly shown)"
  Emax (%): 94
- MOLECULE: "O=C1NC(=O)C(Nc2ccc(CCNC[C@H](O)COc3ccc(O)cc3)cc2)S1 (stereo partly shown)"
  Emax (%): 99
- MOLECULE: "O=C1NC(=O)C(Nc2ccc(CCNC[C@H](O)c3cccc(Cl)c3)cc2)S1 (stereo partly shown)"
  Emax (%): 83
- MOLECULE: "O=C1NC(=O)C(N(Cc2ccc(Br)cc2)c2ccc(CCNC[C@H](O)COc3ccccc3)cc2)S1 (stereo partly shown)"
  Emax (%): 109
